// provenance: PubChem BioAssay

# Test system: XIP peptide (Xip251-270)
# test_summary: small-molecule binders of XIP peptide, primary screen, biochemical, small-molecule microarray, fluorescence 635/667 nm, 0.5 µg/mL protein (AID 1183)
# measurement_context: small-molecule microarray binding, fluorescence 635 nm; higher = more signal
Listed next: entries and their corresponding composite z-score.
API doc: respond with a numeric literal and nothing else, no unit.

Prompt: Given the entry COC(=O)[C@@]1(Cc2ccccc2)[C@H]2c3cc(C(=O)N(C)C)n(CCSCCO)c3C[C@H]2CN1C(=O)c1ccccc1 , report its measured composite z-score.
Response: 0.443

Prompt: Given the entry CCOC(=O)C1=CCC(c2ccc(C)cc2)N(S(=O)(=O)c2ccc(C)cc2)C1 (configuration not stated) , report its measured composite z-score.
Response: 0.46

Prompt: Given the entry C=CCC(OC(C)=O)[C@@H]1[C@@H](N(Cc2ccc(-c3cccc(C(F)(F)F)c3)o2)C(=O)c2ccc(-c3ccccc3)cc2)c2cc(OCCCO)ccc2N1C(=O)c1ccc(-c2ccccc2)cc1 (some centres not stated) , report its measured composite z-score.
Response: -1.09

Prompt: Given the entry CCCC=C(CCC)[C@@H](NC(=O)Oc1ccc(F)cc1)c1ccc(C(=O)OC)cc1 , report its measured composite z-score.
Response: 0.302

Prompt: Given the entry CCCCN1CC=CC23O[C@@H]4C=CCOC(=O)[C@@H]4[C@H]2C(=O)N(CCCCCO)[C@@H]3C1=O (some centres not stated) , report its measured composite z-score.
Response: 0.0889

Prompt: Given the entry COc1ccc(C(=O)Nc2ccc(CN3C(=O)[C@@]4(O[C@@H](CCn5cc([C@H](O)c6ccccc6)nn5)[C@H]([Si](C)(C)c5ccc(OC)cc5)[C@H]4C)c4ccccc43)cc2)cc1 , report its measured composite z-score.
Response: 0.216

Field: next compound
Prompt: Given the entry C=CCNC(=O)[C@H]1[C@@H]2C(=O)O[C@@H](c3ccccc3)[C@@H](c3ccccc3)N2[C@@H](c2ccc(OCCO)cc2)[C@]12C(=O)N(C(=O)OCCOC)c1ccccc12 , report its measured composite z-score.
Response: 0.846
